# MEASUREMENT_NOTES: Binding affinity to bovine type 1 trypsin after 3 mins
# Design: species or system Bos taurus
Consider the following molecules and their measured Ki readings.
MEASURED_PROPERTY: Ki (µM)

STRUCTURE_AS_SMILES	VALUE_OBSERVED
N#Cc1ccc(N2C(=O)c3ccc(OC(=O)CCc4ccc(N)cc4)cc3C2=O)cc1	4.3
CN1C(=O)c2ccc(OC(=O)CCc3ccc(N)cc3)cc2C1=O	13
N#Cc1ccc(N2C(=O)c3ccc(OC(=O)CCc4ccc(N)nc4)cc3C2=O)cc1	0.88
CN1C(=O)c2ccc(OC(=O)CCc3ccc(N)nc3)cc2C1=O	2.9

###

# IC50 per entry
# MEASUREMENT_NOTES: Inhibition of human tryptase-beta after 5 mins by fluorimetric analysis

STRUCTURE_AS_SMILES	UNIT_OF_MEASUREMENT	QUALIFIER_SYMBOL	IC50
CCCN1C(=O)c2ccc(OC(=O)CCc3ccc(N)cc3)cc2C1=O	nM	=	1200
CN1C(=O)c2ccc(OC(=O)CCc3ccc(N)nc3)cc2C1=O	nM	=	400
COc1ccc(N2C(=O)c3ccc(OC(=O)CCc4ccc(N)cc4)cc3C2=O)cc1	nM	=	390
COc1cc(CCC(=O)Oc2ccc3c(c2)C(=O)N(C)C3=O)ccc1N	nM	>	30000
